# assayContext: 25 °C
Item-by-item account of solubility
endpoint: solubility (mM)

[[record]]
molecule = "CC(C)(C#N)/N=N/C(C)(C)C#N"
u = "mM"
endpointvalue = 2.13

[[record]]
molecule = "Cc1ccc(C(C)C)cc1"
u = "mM"
endpointvalue = 0.174

[[record]]
molecule = "Nc1ccccc1Cl"
u = "mM"
endpointvalue = 64

[[record]]
molecule = "C#Cc1ccccc1"
u = "mM"
endpointvalue = 4.46

[[record]]
molecule = "ClC1=C(Cl)C2(Cl)C3C(Cl)C=CC3C1(Cl)C2(Cl)Cl (centres undefined)"
u = "mM"
endpointvalue = 0.000482

[[record]]
molecule = "C[C@]12C[C@H](O)[C@H]3[C@@H](CCC4=CC(=O)CC[C@@]43C)[C@@H]1CC[C@@H]2C(=O)CO"
u = "mM"
endpointvalue = 0.574

[[record]]
molecule = "CS"
u = "mM"
endpointvalue = 320

[[record]]
molecule = "CCCCC(CC)CO (centres undefined)"
u = "mM"
endpointvalue = 6.02

[[record]]
molecule = "ClCc1ccccc1"
u = "mM"
endpointvalue = 4.15

[[record]]
molecule = "O=[N+]([O-])c1ccc(Nc2ccc(O)cc2)c([N+](=O)[O-])c1"
u = "mM"
endpointvalue = 0.0036

[[record]]
molecule = "CCOP(=O)(N=C1SCCS1)OCC"
u = "mM"
endpointvalue = 2.55

[[record]]
molecule = "Cc1cc(Cl)ccc1O"
u = "mM"
endpointvalue = 28.1

[[record]]
molecule = "c1ccc2c(c1)ccc1c3ccc4ccccc4c3[nH]c21"
u = "mM"
endpointvalue = "3.78e-05"

[[record]]
molecule = "ClC1=C(Cl)C2(Cl)C3C(Cl)C(Cl)CC3C1(Cl)C2(Cl)Cl (centres undefined)"
u = "mM"
endpointvalue = 0.000137

[[record]]
molecule = "CCC(C)=NO"
u = "mM"
endpointvalue = 1150

[[record]]
molecule = "c1ccc2c(c1)ccc1ccc3ccccc3c12"
u = "mM"
endpointvalue = "1.51e-05"

[[record]]
molecule = "N[C@@H]1[C@H]2CN(c3nc4c(cc3F)c(=O)c(C(=O)O)cn4-c3ccc(F)cc3F)C[C@@H]12"
u = "mM"
endpointvalue = 0.0295

[[record]]
molecule = "c1ccc2nc(-c3ccc4ccccc4n3)ccc2c1"
u = "mM"
endpointvalue = 0.00398

[[record]]
molecule = "CCOC(C)=O"
u = "mM"
endpointvalue = 908

[[record]]
molecule = "CCCCCC1CCCC1"
u = "mM"
endpointvalue = 0.00082

[[record]]
molecule = "CC(=O)OCC(=O)[C@H]1CC[C@H]2[C@@H]3CCC4=CC(=O)CC[C@]4(C)[C@H]3CC[C@]12C"
u = "mM"
endpointvalue = 0.0234

[[record]]
molecule = "O=[N+]([O-])c1ccccc1"
u = "mM"
endpointvalue = 17

[[record]]
molecule = "CC(C)c1ccccc1-c1ccccc1"
u = "mM"
endpointvalue = 0.00306

[[record]]
molecule = "ClCC(Cl)CCl"
u = "mM"
endpointvalue = 11.9

[[record]]
molecule = "CC(C)(C)c1ccc(O)c(O)c1"
u = "mM"
endpointvalue = 12

[[record]]
molecule = "CCOC(=O)COc1ccc(Cl)cc1"
u = "mM"
endpointvalue = 3.8

[[record]]
molecule = "ClC(Cl)=C(Cl)C(Cl)(Cl)Cl"
u = "mM"
endpointvalue = 0.0684

[[record]]
molecule = "c1ccc2c(c1)ccc1cc3ccc4ccccc4c3cc12"
u = "mM"
endpointvalue = "3.7e-06"

[[record]]
molecule = "CN(C)C(=O)Nc1ccc(Cl)c(Cl)c1"
u = "mM"
endpointvalue = 0.18

